# assayed system: T1, HER2ECDHis (human, UniProt P04626 23-653, biotinylated in the cross-block ELISA (sites not given))
# T1 construct: range 1-653; expressed in HEK-293F; also called soluble HER2; biotinylated HER2ECDHis
# measurement protocol: ELISA; competitor tras
experimental endpoint: % binding vs no competitor (%)

1. HuMab 153 (antibody, V domains shown) VH: QVQLVESGGGVVQPGRSLRLSCAASGFTFSDYVIHWVRQAPGKGLEWVTVISYDGSNKYYADSVKGRFTISRDNSKNTLYLQMNSLSAEDTAMYYCARGGITGTTGVFDYWGQGTLVTVSS VL: DIQMTQSPSSLSASVGDRVTITCRASQGISSWLAWYQQKPEKAPKSLIYDASSLQSGVPSRFSGSGYGTDFSLTISSLQPEDFAIYYCQQYKSYPITFGQGTRLEIK
134
2. HuMab 084 (antibody, V domains shown, also called TH1014-084; PC1014-084) VH: QVQLVQSGAEVKKPGSSVKVSCKASGGTFRTYAINWVRQAPGQGLEWMGRINTVLGIVNHAQKFQGRVTITADKSTNTAYMELNSLRSEDTAVYYCAREKGVDYYYGIEVWGQGTTVTVSS VL: DIQMTQSPSSVSASVGDRVTITCRASQGISSWLAWYQHKPGKAPKLLIYVASTLQSGVPSRFSGSGSGTDFTLTISSLQPEDFATYYCQQANSFPLTFGGGTKVEIK
74
3. HuMab 050 (antibody, V domains shown, also called TH1014-050; PC1014-050) VH: EVQLLESGGGLVQPGGSLRLSCAASGFTFSSYAMNWVRQAPGKGLEWVSAISGRGGTTYYADSVKGRFTISRDNSKNTLYLQMSSLRAEDTAVYYCAKARANWDYFDYWGQGTLVTVSS VL: DIQMTQSPSSVSASVGDRVTITCRASQGISSWLAWYQHKPGKAPKLLIYAASILQSGVPSRFSGSGSGTDFTLTISSLQPEDFATYYCQQANSFPITFGQGTRLEIK
13
4. HuMab 169 (antibody, V domains shown, also called TH1014-169; PC1014-169) VH: QVQLVQSGAEVKKPGASVKVSCKASGYTFTNYGISWVRQAPGQGLEWMGWLSAYSGNTIYAQKLQGRVTMTTDTSTTTAYMELRSLRSDDTAVYYCARDRIVVRPDYFDYWGQGTLVTVSS VL: EIVLTQSPATLSLSPGERATLSCRASQSVSSYLAWYQQKPGQAPRLLIYDASNRATGIPARFSGSGSGTDFTLTISSLEPEDFAVYYCQQRSNWPRTFGQGTKVEIK
19
5. HuMab 159 (antibody, V domains shown, also called TH1014-159; PC1014-159) VH: EVQLVQSGAEVKKPGESLKISCKGSGYNFTSYWIGWVRQMPGKGLEWMGIIYPGDSDTRYSPSFQGQVTISADKSISTAYLQWSSLKASDTAMYYCARWGTYYDILTGYFNWFDPWGQGTLVTVSS VL: DIQMTQSPSSLSASVGDRVTITCRASQGISSWLAWYQQKPEKAPKSLIYAASSLQSGVPSRFSGSGSGTDFTLTISSLQPEDFATYYCQQYYIYPWTFGQGTKVEIK
111
